Entry source: patent US20120202856A1

- Assay Target: canine TRPM8 (Canis lupus familiaris)
- Construct: expressed in transfected cells
- Assay Comment: In Vitro Canine TRPM8 Functional Assay (intracellular Ca2+ fluorescence, icilin activation, HEK293 cells)
- Assay type: cell-based
- Assay Context: HEK293, 0.2 μM test compound; individually measured values; read-out: % Inh (%) @0.2 μM, in vitro TRP M8 Activity
Structures can show the parent of a compound that is named as a salt.
Measure: inhibition at 0.2 µM (%)
Give bare numbers, in %.

Use these answered entries as a reference point.
INSERT INTO measurements (molecule, assay_target, measure, data_value) VALUES
  ('Cc1oc(-c2nc3cc(-c4ccccc4Cl)cc(C(F)(F)F)c3[nH]2)nc1C(C)(C)C [Compound 196, hydrochloride]', 'canine TRPM8 (Canis lupus familiaris)', 'inhibition at 0.2 µM', 39),
  ('Cc1c(C(C)(C)C)nn(C)c1-c1nc2cc(-c3c(F)cccc3C(F)(F)F)cc(Cl)c2[nH]1 [Compound 137, hydrochloride]', 'canine TRPM8 (Canis lupus familiaris)', 'inhibition at 0.2 µM', 99),
  ('FC(F)(F)c1ccccc1-c1ccc2nc(-c3cc(C4CCCCC4)no3)[nH]c2c1 [Compound 24, hydrochloride]', 'canine TRPM8 (Canis lupus familiaris)', 'inhibition at 0.2 µM', 63);

API: the following record is the query input.
The measured inhibition at 0.2 µM associated with Cc1nc(C(C)(C)C)oc1-c1nc2cc(-c3ccccc3)cc(C(F)(F)F)c2[nH]1 [Compound 178, hydrochloride] reads 17

* * *

- Assay Target: canine TRPM8 (Canis lupus familiaris, UniProt Q1A7N1)
- Construct: expressed in transfected cells
- Sequence (Q1A7N1 1-1104): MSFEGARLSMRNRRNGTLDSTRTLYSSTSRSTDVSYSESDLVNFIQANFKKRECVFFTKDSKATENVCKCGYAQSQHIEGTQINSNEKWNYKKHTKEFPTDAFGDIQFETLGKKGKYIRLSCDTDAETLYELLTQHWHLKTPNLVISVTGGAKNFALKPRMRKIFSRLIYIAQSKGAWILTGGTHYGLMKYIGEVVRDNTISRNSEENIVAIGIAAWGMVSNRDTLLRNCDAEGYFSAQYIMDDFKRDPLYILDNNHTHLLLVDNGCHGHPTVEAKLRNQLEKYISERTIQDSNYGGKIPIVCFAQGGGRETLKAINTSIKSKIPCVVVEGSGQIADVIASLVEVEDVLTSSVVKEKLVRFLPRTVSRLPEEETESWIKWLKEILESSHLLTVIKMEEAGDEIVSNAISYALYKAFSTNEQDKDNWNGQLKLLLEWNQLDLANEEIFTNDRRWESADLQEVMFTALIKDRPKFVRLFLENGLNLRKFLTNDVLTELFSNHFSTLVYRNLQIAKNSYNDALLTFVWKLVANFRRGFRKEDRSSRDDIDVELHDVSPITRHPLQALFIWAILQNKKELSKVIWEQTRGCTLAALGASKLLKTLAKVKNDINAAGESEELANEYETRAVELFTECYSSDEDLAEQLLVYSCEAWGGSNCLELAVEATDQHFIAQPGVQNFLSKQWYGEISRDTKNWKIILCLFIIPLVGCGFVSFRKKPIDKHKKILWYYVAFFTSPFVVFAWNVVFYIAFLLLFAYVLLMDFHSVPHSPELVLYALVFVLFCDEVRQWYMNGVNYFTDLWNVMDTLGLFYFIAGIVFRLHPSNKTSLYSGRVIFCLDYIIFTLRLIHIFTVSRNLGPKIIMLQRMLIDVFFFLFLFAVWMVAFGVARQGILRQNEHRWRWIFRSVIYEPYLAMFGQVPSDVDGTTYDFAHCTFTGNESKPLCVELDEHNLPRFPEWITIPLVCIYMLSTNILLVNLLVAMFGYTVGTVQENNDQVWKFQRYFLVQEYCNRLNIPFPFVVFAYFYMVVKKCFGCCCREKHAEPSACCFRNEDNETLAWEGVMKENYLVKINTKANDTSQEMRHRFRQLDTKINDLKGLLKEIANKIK
- Assay Comment: In Vitro Canine TRPM8 Functional Assay (intracellular Ca2+ fluorescence, icilin activation, HEK293 cells)
- Type: cell-based
- Assay Context: HEK293 cells expressing canine TRPM8, icilin activation; individually measured values (batches/salt forms); read-out: IC50 (nM), in vitro TRP M8 Activity
Counter-ions that a name gives are not always drawn.
Measure: IC50 (nM)
Give bare numbers, in nM.

Reference set, count: 3
INSERT INTO assay_data (compound, result_units, data_value) VALUES
  ('Cn1nc(C(C)(C)C)c(C(F)(F)F)c1-c1nc2cc(-c3ccccc3F)cc(C(F)(F)F)c2[nH]1 [Compound 185, sodium salt]', 'nM', 13.8),
  ('Cc1c(C(C)(C)C)noc1-c1nc2cc(-c3c(F)cccc3C(F)(F)F)ccc2[nH]1 [Compound 111, hydrochloride]', 'nM', 10.1),
  ('COc1ccccc1-c1ccc2[nH]c(-c3cc(C4CC4)no3)nc2c1 [Compound 15, sodium salt]', 'nM', 70);

Batch request: IC50 per item, same order as input.
1. CC(C)(C)c1cc(-c2nc3cc(-c4c(C(F)(F)F)cccc4C(F)(F)F)ccc3[nH]2)on1 [Compound 104, hydrochloride]
2. CC(C)(C)c1cc(-c2nc3cc(-c4ccccc4C(F)(F)F)ccc3[nH]2)n(CCO)n1 [Compound 102, hydrochloride]
3. Cc1c(C(C)(C)C)nn(C)c1-c1nc2cc(-c3ccccc3Cl)cc(C(F)(F)F)c2[nH]1 [Compound 121, hydrochloride]
4. CC(C)n1nc(C(C)(C)C)cc1-c1nc2cc(-c3ccccc3OC(F)(F)F)ccc2[nH]1 [Compound 47, sodium salt]
5. Cn1nc(C(C)(C)C)nc1-c1nc2cc(-c3ccccc3C(F)(F)F)cc(C(F)(F)F)c2[nH]1 [Compound 192, sodium salt]
6. Cc1c(C(C)(C)C)noc1-c1nc2cc(-c3c(F)cccc3OC(F)(F)F)ccc2[nH]1 [Compound 110, hydrochloride]

Reply text:
1: 3.9; 2: 54.4; 3: 3.1; 4: 49.6; 5: 7.5; 6: 14.3

List reported IC50 for each of these compounds:
1. Cc1c(C(C)(C)C)nn(C)c1-c1nc2cc(-c3c(C(F)(F)F)cccc3C(F)(F)F)ccc2[nH]1 [Compound 97, hydrochloride]
2. Cc1c(C(C)(C)C)nn(C)c1-c1nc2cc(-c3c(F)cccc3F)ccc2[nH]1 [Compound 95, hydrochloride]
3. FC(F)(F)c1ccccc1-c1ccc2[nH]c(-c3cc(C4CCCC4)no3)nc2c1
4. CCC(CC)c1cc(-c2nc3ccc(-c4ccccc4OC(F)(F)F)cc3[nH]2)on1 [Compound 27, hydrochloride]
5. Cn1nc(C(C)(C)C)c(C#N)c1-c1nc2cc(-c3c(F)cccc3C(F)(F)F)cc(Cl)c2[nH]1 [Compound 172, sodium salt]

Reply text:
1: 6.9; 2: 5.7; 3: 24.5; 4: 46; 5: 8.7

* * *

- Assay Target: canine TRPM8 (Canis lupus familiaris, UniProt Q1A7N1)
- Construct: expressed in transfected cells
- Assay Comment: In Vitro Canine TRPM8 Functional Assay (intracellular Ca2+ fluorescence, icilin activation, HEK293 cells)
- Format: cell-based
- Assay Context: HEK293, 0.2 μM test compound; individually measured values; read-out: % Inh (%) @0.2 μM, in vitro TRP M8 Activity
Structures can show the parent of a compound that is named as a salt.
Measure: inhibition at 0.2 µM (%)
Give bare numbers, in %.

// solved cases for inhibition at 0.2 µM follow
INSERT INTO results (compound, measure, data_value) VALUES
  ('Cn1nc(C(C)(C)C)c(C#N)c1-c1nc2cc(-c3ccccc3Cl)cc(Cl)c2[nH]1.[Na] [Compound 168, sodium salt]', 'inhibition at 0.2 µM', 99),
  ('Cc1nc(C(C)(C)C)oc1-c1nc2cc(-c3ccccc3C(F)(F)F)cc(C(F)(F)F)c2[nH]1 [Compound 177, hydrochloride]', 'inhibition at 0.2 µM', 11),
  ('Cn1nc(C(C)(C)C)c(C(F)(F)F)c1-c1nc2cc(-c3ccccc3OC(F)(F)F)cc(C(F)(F)F)c2[nH]1 [Compound 188, sodium salt]', 'inhibition at 0.2 µM', 99),
  ('CC(C)(C)c1ncc(-c2nc3cc(-c4ccccc4C(F)(F)F)ccc3[nH]2)s1 [Compound 100, hydrochloride]', 'inhibition at 0.2 µM', 91);

For each entry beneath this line, provide reported inhibition at 0.2 µM.
1. Cn1nc(C(C)(C)C)c(Cl)c1-c1nc2cc(-c3ccccc3C(F)(F)F)cc(C(F)(F)F)c2[nH]1 [Compound 129, hydrochloride]
2. Cn1nc(C(C)(C)C)c(Cl)c1-c1nc2cc(-c3c(F)cccc3F)cc(C(F)(F)F)c2[nH]1 [Compound 124, hydrochloride]

Reply text:
[99, 99]

// for each compound below, give its inhibition at 0.2 µM
1. Cc1oc(-c2nc3cc(-c4ccccc4F)cc(C(F)(F)F)c3[nH]2)nc1C(C)(C)C [Compound 193, hydrochloride]
2. Cc1oc(-c2nc3cc(-c4ccccc4OC(F)(F)F)cc(C(F)(F)F)c3[nH]2)nc1C(C)(C)C [Compound 195, hydrochloride]
3. Cc1c(C(C)(C)C)nn(C)c1-c1nc2cc(-c3ccccc3Cl)cc(Cl)c2[nH]1 [Compound 134, hydrochloride]
4. Cc1nc(C(C)(C)C)oc1-c1nc2cc(-c3ccccc3OC(F)(F)F)cc(Cl)c2[nH]1 [Compound 183, hydrochloride]

Reply text:
[18, 46, 99, 4]

State recorded inhibition at 0.2 µM for all listed compounds.
1. Cc1oc(C(C)(C)C)cc1-c1nc2cc(-c3ccccc3F)ccc2[nH]1 [Compound 174, sodium salt]
2. Cc1oc(C(C)(C)C)nc1-c1nc2cc(-c3c(F)cccc3C(F)(F)F)cc(C(F)(F)F)c2[nH]1 [Compound 158, hydrochloride]
3. Cn1nc(C(C)(C)C)c(Cl)c1-c1nc2cc(-c3ccccc3F)cc(C(F)(F)F)c2[nH]1 [Compound 127, hydrochloride]

Reply text:
1. 83
2. 72
3. 99

Notebook: Cn1nc(-c2nc3cc(-c4ccccc4C(F)(F)F)ccc3[nH]2)cc1C1CCC1 , inhibition at 0.2 µM read as 7

* * *

- Assay Target: canine TRPM8 (Canis lupus familiaris, UniProt Q1A7N1)
- Construct: expressed in transfected cells
- Assay Comment: In Vitro Canine TRPM8 Functional Assay (intracellular Ca2+ fluorescence, icilin activation, HEK293 cells)
- Assay type: cell-based
- Assay Context: HEK293 cells expressing canine TRPM8, icilin activation; individually measured values (batches/salt forms); read-out: IC50 (nM), in vitro TRP M8 Activity
Counter-ions that a name gives are not always drawn.
Measure: log10 of IC50 (log10 of the value in nM)
Each number you see is log10 of IC50, and the unit inside the log is nM.

Batch of 4 molecules: report log10 of IC50 for each.
1. COc1ccccc1-c1ccc2[nH]c(-c3cc(C(C)C)no3)nc2c1 [Compound 2, sodium salt]
2. CCn1nc(C(C)(C)C)cc1-c1nc2cc(-c3ccccc3C(F)(F)F)ccc2[nH]1 [Compound 44, sodium salt]
3. Cc1c(C(C)(C)C)nn(C)c1-c1nc2cc(-c3ccccc3Cl)ccc2[nH]1 [Compound 94, hydrochloride]
4. Cn1nc(C2CCC2)cc1-c1nc2cc(-c3ccccc3Cl)ccc2[nH]1 [Compound 39, sodium salt]

Reply text:
1. 1.20
2. 1.20
3. 0.65
4. 1.30

Give log10 of IC50 for each of the items listed below.
1. FC(F)(F)c1ccccc1-c1ccc2[nH]c(-c3cc(Cl)no3)nc2c1 [Compound 33, sodium salt]
2. Cc1c(C(C)(C)C)nn(C)c1-c1nc2cc(-c3c(F)cccc3OC(F)(F)F)cc(C(F)(F)F)c2[nH]1 [Compound 123, hydrochloride]
3. Cn1nc(C(C)(C)C)c(C#N)c1-c1nc2cc(-c3c(F)cccc3F)cc(Cl)c2[nH]1 [Compound 171, sodium salt]
4. Cc1oc(C(C)(C)C)c(C#N)c1-c1nc2cc(-c3ccccc3C(F)(F)F)cc(C(F)(F)F)c2[nH]1 [Compound 184, sodium salt]
5. Cc1c(C(C)(C)C)nn(C)c1-c1nc2cc(-c3c(F)cccc3C(F)(F)F)ccc2[nH]1 [Compound 78, sodium salt]
6. FC(F)(F)Oc1ccccc1-c1ccc2[nH]c(-c3cc(Br)no3)nc2c1 [Compound 43, sodium salt]
7. Cc1c(C(C)(C)C)nn(C)c1-c1nc2cc(-c3ccccc3F)cc(C(F)(F)F)c2[nH]1 [Compound 118, hydrochloride]
8. CCn1nc(C(C)(C)C)cc1-c1nc2cc(-c3ccccc3OC(F)(F)F)ccc2[nH]1 [Compound 45, sodium salt]

Reply text:
1: 2.16; 2: 0.90; 3: 0.91; 4: 0.81; 5: 0.00; 6: 1.98; 7: 0.98; 8: 1.71

Dear colleague, could you send me log10 of IC50 for each of the items below? Thanks.
1. CCOc1ccccc1-c1ccc2[nH]c(-c3cc(C(C)C)no3)nc2c1 [Compound 6, sodium salt]
2. Cc1c(C(C)(C)C)nn(C)c1-c1nc2cc(-c3c(F)cccc3OC(F)(F)F)ccc2[nH]1 [Compound 96, hydrochloride]

Reply text:
1. 1.81
2. 0.82
